- target-or-system: Nuclear receptor subfamily 1 group D member 1 (Homo sapiens)
- method-notes: modulators of Rev-erb alpha DNA binding, dose response, biochemical, FITC-DNA, fluorescence polarization (AID 1259321)
The source made the active and inactive calls.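 How the source made its calls: active means half-maximal concentration for changing protein binding to DNA, from the fitted dose curve, below 10 micromolar; inactive means the rest.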
Field 'call' accepts 1 for active, 0 for inactive

Solved cases (5 shown):
[
  {
    "molecule": "Cc1c(Cl)cccc1NC(=O)Cn1cc(C(F)(F)F)cc(Cl)c1=O",
    "class-assignment": 0
  },
  {
    "molecule": "COc1ccccc1NC(=O)c1sc(NC(=O)c2ccco2)c(C#N)c1C",
    "class-assignment": 1
  },
  {
    "molecule": "Brc1ccc2ncc(Br)cc2c1",
    "class-assignment": 1
  },
  {
    "molecule": "Oc1ccccc1-c1nc(N2CCCC2)c2ccccc2n1",
    "class-assignment": 1
  },
  {
    "molecule": "CCCCNc1ccc2c3c(cccc13)C(=O)N(CCCC)C2=O",
    "class-assignment": 1
  }
]

Check the results log: what was the call for O=C(CCn1c(SCC(=O)c2ccccc2)nc2ccccc2c1=O)NCc1ccc(F)cc1 ?
0

Check the results log: what was the call for Cc1cc2cc3c(=O)[nH]c(=O)[nH]c3nc2cc1C ?
1

Check the results log: what was the call for CCN(CC)C(=O)CSC1=C(C#N)C(c2cccs2)C=C(C)N1 (centres undefined) ?
0

Check the results log: what was the call for COc1ccc(Oc2c(Cl)cnn(CC(=O)C(c3ccccc3)c3ccccc3)c2=O)cc1 ?
1

Check the results log: what was the call for COc1ccc(-c2c(C)nc3c(-c4ccsc4)cnn3c2N)cc1 ?
1

Check the results log: what was the call for Cc1ccc(C)c(-n2c(-c3ccc(Br)cc3)csc2=NC(=O)c2ccccc2F)c1 ?
0

Check the results log: what was the call for Cc1ccc(-n2c(SCC(=O)Nc3cccc(S(=O)(=O)NC4=NCCCCC4)c3)nc3ccccc3c2=O)cc1 ?
0

Check the results log: what was the call for C[n+]1cc(C(=O)N2CCCCC2)ccc1/C=C/c1c[nH]c2ccccc12 ?
1

Check the results log: what was the call for C=CCN1C(=O)/C(=C\C=C2\N(C)c3ccccc3C2(C)C)SC1=S ?
0

Values from PubChem BioAssay AID1259321
